SYSTEM TESTED: T1, Peptide 4: Biotin-AGGGGSGGGGSGGGGSAAA-Tyr-acid (N-terminal biotin; C-terminal acid)
T1 construct: Control peptide without PC
T1 peptide: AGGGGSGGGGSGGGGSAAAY
PROCEDURE DETAILS: scFv ELISA
Answer each item with its documented OD450.
Record the value in OD450, omitting the unit from your answer.

I'd like to know its OD450. The binder in question is PcOxP_DB03_B01 (scFv, V domains shown, scFv in periplasmic extract) VH: EVQLLESGGGLVQPGGSLRLSCAASGFTFSSYYMEWVRQAPGKGLEWVAASRNTANDYTTEYADSVKGRFTISRDNSKNTLYLQMNSLRAEDTAVYYCARDYYGSSYWYFDVWGQGTLVTVSS VL: DIVMTQSPDSLAVSLGERATINCTASESLYSSKHKVHYLAWYQQKPGQPPKLLIYGASNREIGVPDRFSGSGSGTDFTLTISSLQAEDVAVYYCAQFYSYPLTFGGGTKVEIK
0.04

What would you report for PcOxP_DB03_B09 (scFv, V domains shown, scFv in periplasmic extract) VH: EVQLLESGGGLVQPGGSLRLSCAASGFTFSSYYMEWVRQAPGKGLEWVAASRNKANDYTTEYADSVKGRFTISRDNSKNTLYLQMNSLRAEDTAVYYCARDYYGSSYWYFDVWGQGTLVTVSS VL: DIVMTQSPDSLAVSLGERATINCTASESLYSSKHKVHYLAWYQQKPGQPPKLLIYGAANRYIGVPDRFSGSGSGTDFTLTISSLQAEDVAVYYCAQFYSYPLTFGGGTKVEIK ?
0.05

What would you report for PcOxP_DB04_A11 (scFv, V domains shown, scFv in periplasmic extract) VH: EVQLLESGGGLVQPGGSLRLSCAASGFTFSDYYMEWVRQAPGKGLEWVAASRNKANTYTTEYADSVKGRFTISRDNSKNTLYLQMNSLRAEDTAVYYCARDYYGSSYWYFDVWGQGTLVTVSS VL: DIVMTQSPDSLAVSLGERATINCTASESVLSSKHKKNYLAWYQQKPGQPPKLLIYGASTRYIGVPDRFSGSGSGTDFTLTISSLQAEDVAVYYCAQFYSYPLTFGGGTKVEIK ?
0.07
